# assayedSystem: T1, TNFR1 (Homo sapiens, UniProt P19438)
# T1 chain: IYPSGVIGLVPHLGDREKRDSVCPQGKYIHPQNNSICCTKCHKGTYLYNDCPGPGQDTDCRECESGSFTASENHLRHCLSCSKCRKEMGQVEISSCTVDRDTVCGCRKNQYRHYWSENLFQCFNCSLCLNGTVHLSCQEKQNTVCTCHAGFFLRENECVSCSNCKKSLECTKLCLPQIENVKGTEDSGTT
# methodSummary: yeast display SC50
If the reported apparent Kd (screen) equals or exceeds 0.7 nM, assign Satisfied. If not, assign Not satisfied.

Would you please look over these solved cases?
* L82P (designed binder) MTLQELLREEALRRAEAEAFRYALELLAEKFPEQKEYLLDLAEEIESQIRSLSGVDVEDVRKFLDKEWAWVKELLAEHPAEPAEVEAARAARLAELRAEVEAKVAA | Satisfied
* Y37W (designed binder) MTLQELLREEALRRAEAEAFRYALELLAEKFPEQKEWLLDLAEEIESQIRSLSGVDVEDVRKFLDKEWAWVKELLAEHPAELAEVEAARAARLAELRAEVEAKVAA | Satisfied
* A94Y (designed binder) MTLQELLREEALRRAEAEAFRYALELLAEKFPEQKEYLLDLAEEIESQIRSLSGVDVEDVRKFLDKEWAWVKELLAEHPAELAEVEAARAARLYELRAEVEAKVAA | Not satisfied

Lab note: next binder to report on.
Check this binder for apparent Kd (screen) at or above 0.7 nM: A90M (designed binder) MTLQELLREEALRRAEAEAFRYALELLAEKFPEQKEYLLDLAEEIESQIRSLSGVDVEDVRKFLDKEWAWVKELLAEHPAELAEVEAARMARLAELRAEVEAKVAA
Not satisfied
